test: Human microsome stability assay; format: in vitro ADME; conditions: 1 μM test compound, 0.5 mg/mL protein
For each entry below, report its clearance in human liver microsomes value.
Numbers only, in mL/min/kg.

As a guide, the following entries are already answered.
| compound | measurement |
| --- | --- |
| C[C@@H]1CN(c2ccc(C(F)(F)F)c3ncccc23)C[C@H](C(=O)NC2CC3CNCC32)O1 (single isomer, unassigned) [Example 49B] | 6.15 |
| C[C@@H]1CN(c2ccc(C(F)(F)F)c3ncccc23)C[C@H](C(=O)NC2CCN(C)CC2)O1 | 6.15 |
| Cc1ccc(N2C[C@@H](C)O[C@@H](C(=O)NCC3CN(C)CCO3)C2)c2cccnc12 (stereo partly shown) | 6.15 |

// below: clearance in human liver microsomes requested for another compound
Input C[C@@H]1CN(c2ccc(C(F)(F)F)c3ncccc23)C[C@H](C(=O)N[C@@H]2CNC[C@@H]2F)O1 (single isomer, unassigned) . Output clearance in human liver microsomes: 6.15

---

For each entry below, report its solubility thermodynamic value.
test: LYSA solubility assay; type: physicochemical; conditions: 0.05 M phosphate buffer, pH 6.5, aqueous buffer, thermodynamic from solid

| compound | recorded endpoint | measurement |
| --- | --- | --- |
| C[C@@H]1CN(c2ccc(C(F)(F)F)c3ncccc23)C[C@H](C(=O)NC2C3CCC2CNC3)O1 (stereo partly drawn) | solubility thermodynamic | > 597 µg/mL |
| C[C@@H]1CN(c2ccc(C(F)(F)F)c3ncccc23)C[C@H](C(=O)NC2C3CCCC2CNC3)O1 (stereo partly drawn) | solubility thermodynamic | > 660 µg/mL |
| C[C@@H]1CN(c2ccc(C(F)(F)F)c3ncccc23)C[C@H](C(=O)NC2CNCCOC2)O1 (stereo partly drawn) | solubility thermodynamic | > 695 µg/mL |
| C[C@@H]1CN(c2ccc(C(F)(F)F)c3ncccc23)C[C@H](C(=O)N2CCC3(CCNC3)C2)O1 (stereo partly drawn) | solubility thermodynamic | > 595 µg/mL |
| C[C@@H]1CN(c2ccc(Cl)c3ncccc23)C[C@H](C(=O)N[C@H]2CNC[C@H]2F)O1 | solubility thermodynamic | > 455 µg/mL |
| C[C@@H]1CN(c2ccc(C(F)(F)F)c3ncccc23)C[C@H](C(=O)NCC2CCCCN2C)O1 (stereo partly drawn) | solubility thermodynamic | > 660 µg/mL |

Provide solubility thermodynamic values for the following items, in order.
1. C[C@@H]1CN(c2ccc(C(F)(F)F)c3ncccc23)C[C@H](C(=O)NC2CNC[C@@H]2F)O1 (stereo partly drawn)
2. C[C@@H]1CN(c2ccc(Cl)c3ncccc23)C[C@H](C(=O)NC2CCN(C)CC2)O1
3. C[C@@H]1CN(c2ccc(C(F)(F)F)c3ncccc23)C[C@H](C(=O)NC2CC3COCC(C2)N3)O1 (stereo partly drawn)

> 585 µg/mL
> 475 µg/mL
350 µg/mL

Provide solubility thermodynamic values for the following items, in order.
1. C[C@@H]1CN(c2ccc(C(F)(F)F)c3ncccc23)C[C@H](C(=O)NCC2CNCCO2)O1 (stereo partly drawn)
2. C[C@@H]1CN(c2ccc(C(F)(F)F)c3ncccc23)C[C@H](C(=O)N[C@H]2CNC[C@H]2F)O1 (single isomer, unassigned)
3. C#Cc1ccc(N2C[C@@H](C)O[C@@H](C(=O)NC3CCN(C)CC3)C2)c2cccnc12

["> 625 µg/mL", "> 625 µg/mL", "> 560 µg/mL"]

---

experiment: Human microsome stability assay; format: in vitro ADME; conditions: 1 μM test compound, 0.5 mg/mL protein
For each entry below, report its clearance in human liver microsomes value.
Give bare numbers, in mL/min/kg.

As a guide, the following entries are already answered.
| compound | clearance in human liver microsomes [mL/min/kg] |
| --- | --- |
| C[C@@H]1CN(c2ccc(C(F)(F)F)c3ncccc23)C[C@H](C(=O)N[C@H]2CNC[C@H]2F)O1 (single isomer, unassigned) | 6.15 |
| C[C@H]1C[C@@H](N)CN(c2ccc(C(F)(F)F)c3ncccc23)C1 | 6.15 |
| C[C@@H]1CN(c2ccc(C(F)(F)F)c3ncccc23)C[C@H](C(=O)NC[C@@H]2C[C@@H](F)CN2)O1 | 6.15 |
| C[C@@H]1CN(c2ccc(C(F)(F)F)c3ncccc23)C[C@H](C(=O)NC2CC3CCCC(C2)N3)O1 (single isomer, unassigned) [Example 34B] | 6.17 |
| C[C@@H]1CN(c2ccc(I)c3ncccc23)C[C@H](C(=O)NC2CCN(C)CC2)O1 | 7.04 |

Provide clearance in human liver microsomes values for the following items, in order.
1. C[C@@H]1CN(c2ccc(C(F)(F)F)c3ncccc23)C[C@H](C(=O)NC2CNC[C@@H]2F)O1 (stereo partly drawn)
2. C[C@@H]1CN(c2ccc(C(F)(F)F)c3ncccc23)C[C@H](C(=O)N2CC(N)C2)O1
3. C[C@@H]1CN(c2ccc(C(F)(F)F)c3ncccc23)C[C@H](C(=O)NC2CC3CCCC(C2)N3)O1 (single isomer, unassigned) [Example 34A]
4. C[C@@H]1CN(c2ccc(Cl)c3ncccc23)C[C@H](C(=O)NC2CCN(C)CC2)O1

6.15
6.15
6.24
6.15

---

molecular target: human TLR9 (Homo sapiens, UniProt Q9NR96); test: HEK293-Blue-hTLR-9 cells assay (SEAP reporter, ODN2006 stimulation); settings: HEK293-Blue-hTLR9 cells, ODN2006, 20 hrs
Sequence (Q9NR96 26-1032): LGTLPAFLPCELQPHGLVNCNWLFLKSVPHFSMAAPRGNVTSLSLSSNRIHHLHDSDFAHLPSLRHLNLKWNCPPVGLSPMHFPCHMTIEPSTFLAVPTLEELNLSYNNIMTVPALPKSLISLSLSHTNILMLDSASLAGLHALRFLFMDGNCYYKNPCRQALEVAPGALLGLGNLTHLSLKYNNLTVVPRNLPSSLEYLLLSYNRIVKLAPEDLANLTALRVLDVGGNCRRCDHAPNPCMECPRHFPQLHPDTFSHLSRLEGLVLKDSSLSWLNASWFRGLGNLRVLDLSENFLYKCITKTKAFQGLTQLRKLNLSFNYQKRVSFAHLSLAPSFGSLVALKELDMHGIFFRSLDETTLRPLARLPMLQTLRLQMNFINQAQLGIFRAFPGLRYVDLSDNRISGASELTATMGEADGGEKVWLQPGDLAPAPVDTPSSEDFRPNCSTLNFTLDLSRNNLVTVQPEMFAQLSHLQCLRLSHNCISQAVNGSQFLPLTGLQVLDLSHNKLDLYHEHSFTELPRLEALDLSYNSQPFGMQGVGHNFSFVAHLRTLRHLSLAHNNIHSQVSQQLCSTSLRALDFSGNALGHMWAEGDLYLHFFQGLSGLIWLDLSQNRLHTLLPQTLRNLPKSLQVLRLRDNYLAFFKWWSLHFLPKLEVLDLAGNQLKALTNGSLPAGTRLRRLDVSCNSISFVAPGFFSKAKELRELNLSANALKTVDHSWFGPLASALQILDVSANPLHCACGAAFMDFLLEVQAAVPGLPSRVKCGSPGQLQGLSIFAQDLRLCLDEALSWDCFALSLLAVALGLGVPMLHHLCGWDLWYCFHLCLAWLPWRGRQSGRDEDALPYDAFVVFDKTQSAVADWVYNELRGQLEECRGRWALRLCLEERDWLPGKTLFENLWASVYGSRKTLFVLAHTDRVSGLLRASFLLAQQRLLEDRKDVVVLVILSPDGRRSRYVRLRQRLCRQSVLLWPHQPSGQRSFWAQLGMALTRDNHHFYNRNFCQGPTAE
recorded endpoint: IC50

As a guide, the following entries are already answered.
| compound | recorded endpoint | measurement |
| --- | --- | --- |
| C[C@@H]1CN(c2ccc(C(F)(F)F)c3ncccc23)C[C@H](C(=O)NCCN2CCOCC2)O1 | IC50 | > 100 µM |
| C[C@@H]1CN(c2ccc(C(F)(F)F)c3ncccc23)C[C@H](C(=O)N2CCC(N)C2)O1 (stereo partly shown) | IC50 | 18.4 µM |
| C[C@@H]1CN(c2ccc(Cl)c3ncccc23)C[C@H](C(=O)NC2CCN(C)CC2)O1 | IC50 | 23.7 µM |

// below: IC50 requested for another compound
So the reported IC50 for C[C@@H]1CN(c2ccc(C(F)(F)F)c3ncccc23)C[C@H](C(=O)NC[C@@H]2CC(F)(F)CN2)O1 , on human TLR9 (Homo sapiens, UniProt Q9NR96), turned out to be > 100 µM

---

target: CYP3A4 (Homo sapiens, UniProt P08684); construct: tissue BD-Gentest 452117; host or cells: human liver microsomes; test: CYP inhibition assay in human liver microsome, CYP3A4; assay type: in vitro ADME; settings: human, liver microsomes, probe midazolam, HLM, midazolam substrate, read-out: CYP inhibition % @10 uM (3A4)
Sequence (P08684 whole entry): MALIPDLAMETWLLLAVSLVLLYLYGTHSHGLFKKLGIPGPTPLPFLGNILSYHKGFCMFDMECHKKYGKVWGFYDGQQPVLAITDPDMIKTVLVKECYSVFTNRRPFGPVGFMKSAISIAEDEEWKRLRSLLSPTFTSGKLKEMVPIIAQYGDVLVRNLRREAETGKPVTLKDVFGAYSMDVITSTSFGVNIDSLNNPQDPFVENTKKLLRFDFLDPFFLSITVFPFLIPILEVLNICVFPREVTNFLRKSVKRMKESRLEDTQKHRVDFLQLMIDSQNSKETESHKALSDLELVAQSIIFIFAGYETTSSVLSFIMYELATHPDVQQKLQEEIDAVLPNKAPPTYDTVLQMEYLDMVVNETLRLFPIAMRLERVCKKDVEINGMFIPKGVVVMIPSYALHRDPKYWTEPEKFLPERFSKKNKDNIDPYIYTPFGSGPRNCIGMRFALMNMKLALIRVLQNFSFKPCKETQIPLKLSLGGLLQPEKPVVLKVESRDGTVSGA
recorded endpoint: inhibition at 5 min, 10 µM
# output: numeric value plus its unit

As a guide, the following entries are already answered.
| compound | inhibition at 5 min, 10 µM |
| --- | --- |
| C[C@@H]1CN(c2ccc(I)c3ncccc23)C[C@H](C(=O)NC2CCN(C)CC2)O1 [Example 38] | -2% |
| Cc1ccc(N2C[C@@H](C)C[C@@H](N)C2)c2cccnc12 [Example 15] | -18% |
| C[C@@H]1CN(c2ccc(C(F)(F)F)c3ncccc23)C[C@H](C(=O)NC2CC3CCCC(C2)N3)O1 (single isomer, unassigned) [Example 34B] | -28% |
| C[C@@H]1CN(c2ccc(C(F)(F)F)c3ncccc23)C[C@H](C(=O)NC2CNCCOC2)O1 (some centres unmarked) [Example 14] | -24% |
| C[C@@H]1CN(c2ccc(C(F)(F)F)c3ncccc23)C[C@H](C(=O)NCCN2CCOCC2)O1 [Example 13] | -22% |

Provide inhibition at 5 min, 10 µM values for the following items, in order.
1. C[C@@H]1CN(c2ccc([N+](=O)[O-])c3ncccc23)C[C@H](C(=O)NCC2CN(C)CCO2)O1 (some centres unmarked) [Example 18]
2. C[C@@H]1CN(c2ccc(C(F)(F)F)c3ncccc23)C[C@H](C(=O)NCC2CCCCN2C)O1 (some centres unmarked) [Example 4]
3. C[C@@H]1CN(c2ccc([N+](=O)[O-])c3ncccc23)C[C@H](C(=O)NC2CCN(C)CC2)O1 [Example 20]
4. C[C@@H]1CN(c2ccc(C(F)(F)F)c3ncccc23)C[C@H](C(=O)NC2CN(C)CC23CC3)O1 (some centres unmarked) [Example 9]
5. C[C@@H]1CN(c2ccc(C(F)(F)F)c3ncccc23)C[C@H](C(=O)NCC2COCCN2C)O1 (some centres unmarked) [Example 11]
6. C[C@@H]1CN(c2ccc(C(F)(F)F)c3ncccc23)C[C@H](C(=O)N2CCC3(CCNCC3)CC2)O1 [Example 32]
7. C[C@@H]1CN(c2ccc(C(F)(F)F)c3ncccc23)C[C@H](C(=O)NC2CCN(C)CC2)O1 [Example 5]

["11%", "-14%", "6%", "-18%", "-28%", "-2%", "-13%"]

Provide inhibition at 5 min, 10 µM values for the following items, in order.
1. Cc1ccc(N2C[C@@H](C)O[C@@H](C(=O)NCC3CN(C)CCO3)C2)c2cccnc12 (some centres unmarked) [Example 17]
2. Cc1ccc(N2C[C@@H](C)O[C@@H](C(=O)NC3CCN(C)CC3)C2)c2cccnc12 [Example 16]
3. C[C@@H]1CN(c2ccc(C(F)(F)F)c3ncccc23)C[C@H](C(=O)N2CCC(N)C2)O1 (some centres unmarked) [Example 10]
4. C[C@@H]1CN(c2ccc(I)c3ncccc23)C[C@H](C(=O)NCC2CN(C)CCO2)O1 (some centres unmarked) [Example 39]
5. C[C@@H]1CN(c2ccc(C(F)(F)F)c3ncccc23)C[C@H](C(=O)NC[C@@H]2CC(F)(F)CN2)O1 [Example 30]
6. C[C@@H]1CN(c2ccc(C(F)(F)F)c3ncccc23)C[C@H](C(=O)NCC(C)(C)N)O1 [Example 6]

1. -5%
2. 2%
3. 10%
4. 5%
5. 20%
6. -10%

Provide inhibition at 5 min, 10 µM values for the following items, in order.
1. C[C@@H]1CN(c2ccc(C(F)(F)F)c3ncccc23)C[C@H](C(=O)NC[C@@H]2C[C@@H](F)CN2)O1 [Example 27]
2. C[C@@H]1CN(c2ccc(C(F)(F)F)c3ncccc23)C[C@H](C(=O)NCC2CN(C)CCO2)O1 (some centres unmarked) [Example 3]
3. C[C@@H]1CN(c2ccc(C(F)(F)F)c3ncccc23)C[C@H](C(=O)NC2C3CCC2CNC3)O1 (some centres unmarked) [Example 31]
4. C[C@@H]1CN(c2ccc(C(F)(F)F)c3ncccc23)C[C@H](C(=O)N[C@@H]2CNC[C@@H]2F)O1 (single isomer, unassigned) [Example 2A]
5. C[C@@H]1CN(c2ccc(Cl)c3ncccc23)C[C@H](C(=O)NCC2CN(C)CCO2)O1 (some centres unmarked) [Example 26]
6. C[C@@H]1CN(c2ccc(Cl)c3ncccc23)C[C@H](C(=O)NC2CCCNCC2)O1 (some centres unmarked) [Example 25]
7. C[C@@H]1CN(c2ccc(C(F)(F)F)c3ncccc23)C[C@H](C(=O)NC2CCCNCC2)O1 (some centres unmarked) [Example 8]
8. C[C@@H]1CN(c2ccc(C(F)(F)F)c3ncccc23)C[C@H](C(=O)NC2CNCC(F)(F)C2)O1 (some centres unmarked) [Example 28]

-2%
-11%
-29%
5%
-5%
2%
-34%
-30%
